- Test system: PC-9 (EGFR exon 19 deletion)
- measurement-notes: Cell antiproliferative assay (CTG, 72 h), PC-9
- Type: cell-based, human
- condition-description: Homo sapiens, PC-9, 72 h, Table 2, PC-9 cells
measure-name: IC50

A selection of reference data follows.
[[record]]
compound = "COc1cc(N2CCN(C(=O)CN3CCC(c4ccc(NC5CCC(=O)NC5=O)cc4)CC3)CC2)ccc1Nc1ncc(Cl)c(Nc2ccccc2C(=O)C(C)C)n1 (centres unmarked)"
target_system = "PC-9 (EGFR exon 19 deletion)"
result_value = "100 to 1000 nM"

[[record]]
compound = "COc1cc(N2CC3CC(C2)N3C(=O)CN2CCC(c3ccc(NC4CCC(=O)NC4=O)cc3)CC2)ccc1Nc1ncc(Cl)c(Nc2ccccc2C(C)=O)n1 (centres unmarked)"
target_system = "PC-9 (EGFR exon 19 deletion)"
result_value = "≥ 1000 nM"

[[record]]
compound = "COc1cc(N2CCC(N3CCN(C(=O)CCCCN4CCN(c5ccc6c(c5)C(=O)N(C5CCC(=O)NC5=O)C6=O)CC4)CC3)CC2)ccc1Nc1ncc(Cl)c(Nc2ccccc2N(C)S(C)(=O)=O)n1 (centres unmarked) [Comparative Compound 3, reference compound]"
target_system = "PC-9 (EGFR exon 19 deletion)"
result_value = "100 to 1000 nM"


q: Return IC50 for the following compound: COc1cc(N2CCN(C(=O)CN3CCC(c4ccc(NC5CCC(=O)NC5=O)cc4)CC3)CC2)ncc1Nc1ncc(C(F)(F)F)c(Nc2ccccc2C(C)=O)n1 (centres unmarked)
a: 10 to 100 nM

q: Return IC50 for the following compound: COc1cc(N2CCN(C(=O)CN3CCC(c4ccc(NC5CCC(=O)NC5=O)cc4)CC3)CC2)c(C)cc1Nc1ncc(Cl)c(Nc2ccccc2C(=O)N(C)C)n1 (centres unmarked)
a: 100 to 1000 nM

----------
- Tested on: H1975 (EGFR L858R/T790M double mutation)
- measurement-notes: Cell antiproliferative assay (CTG, 72 h), H1975
- Assay type: cell-based, human
- condition-description: Homo sapiens, NCI-H1975, 72 h, Table 2, H1975 cells
measure-name: IC50

A selection of reference data follows.
[[record]]
compound = "COc1cc(N2CCN(C(=O)CN3CCC(c4ccc(NC5CCC(=O)NC5=O)cc4)CC3)CC2)ccc1Nc1ncc(Cl)c(Nc2ccc(Cl)cc2C(C)(C)O)n1 (stereo not shown)"
measure_name = "IC50"
result_value = "≤ 10 nM"

[[record]]
compound = "COc1cc(N2CCN(CCCN3CCC(c4ccc(NC5CCC(=O)NC5=O)cc4)CC3)CC2)ccc1Nc1ncc(Cl)c(Nc2ccccc2C(C)=O)n1 (stereo not shown)"
measure_name = "IC50"
result_value = "100 to 1000 nM"

[[record]]
compound = "CNC(=O)c1ccccc1Nc1nc(Nc2cc(C#N)c(N3CCN(C(=O)CN4CCC(c5ccc(NC6CCC(=O)NC6=O)cc5)CC4)CC3)cc2OC)ncc1Cl (stereo not shown)"
measure_name = "IC50"
result_value = "≤ 10 nM"

[[record]]
compound = "COc1cc(N2CCN(CCC3CCN(c4ccc5c(c4)C(=O)N(C4CCC(=O)NC4=O)C5=O)CC3)CC2)ccc1Nc1ncc(Cl)c(Nc2ccccc2C(C)=O)n1 (stereo not shown)"
measure_name = "IC50"
result_value = "100 to 1000 nM"


q: Enter IC50 (test system H1975 (EGFR L858R/T790M double mutation)) for COc1cc(N2CCN(C(=O)CN3CCC(c4ccc(NC5CCC(=O)NC5=O)cc4)CC3)CC2)c(C)cc1Nc1ncc(Cl)c(Nc2ccccc2)n1 (stereo not shown)
a: 100 to 1000 nM

q: Enter IC50 (test system H1975 (EGFR L858R/T790M double mutation)) for COc1cc(N2CCN(C(=O)CN3CCC(c4ccc(NC5CCC(=O)NC5=O)cc4)CC3)CC2)ccc1Nc1ncc(Cl)c(Nc2ccccc2P(C)(C)=O)n1 (stereo not shown)
a: 10 to 100 nM

q: Enter IC50 (test system H1975 (EGFR L858R/T790M double mutation)) for COc1cc(N2CCN(C(=O)CN3CCC(c4ccc(NC5CCC(=O)NC5=O)cc4)CC3)CC2)c(C#N)cc1Nc1ncc(Cl)c(Nc2ccccc2C(C)=O)n1 (stereo not shown)
a: 10 to 100 nM
